Taken from the RNAGym collection of RNA variant scans (doi:10.7554/elife.80360).

B1: HDV Ribozyme (parent)
chain: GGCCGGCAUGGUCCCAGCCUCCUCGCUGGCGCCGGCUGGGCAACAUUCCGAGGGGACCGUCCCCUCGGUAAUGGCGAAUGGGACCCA

variants of: B1; experiment: self-cleavage, relative activity (ratio to wild type); higher = more cleavage; co-transcriptional
// map self-cleavage to label using lower range (below 0.1), middle range (0.1 to below 0.7), upper range (0.7 or more)

Some solved cases for reference:
G29U A51G | lower range
G25U A77G | middle range
A8G A51U | upper range
U46C A51U | upper range
A77G A78G | middle range

Please look at the following variant next.
Could you place C4G U47C in its proper category? Many thanks.
middle range
